Let's look at some binders and their measured pKd.
- Target Under Test: PICK1, Q9NRD5
- Sequence (Q9NRD5 17-115): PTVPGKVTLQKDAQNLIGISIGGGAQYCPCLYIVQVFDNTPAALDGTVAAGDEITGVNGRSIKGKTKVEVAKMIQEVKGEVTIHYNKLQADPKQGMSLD
- Assay Overview: holdup assay
- Parameters: key: below the threshold = too weak to quantify, mostly under pKd 3.1 to 4
- Run Conditions: plain residues with an end cap or a label only (N-terminal biotin on a linker: ado-ado)
I'd appreciate a reply containing only the number, no unit.

Solved cases (3 shown):
SGSLKLMTTV [DACT1, Q9NYF0] ... 4.09
TSQESEDTYL [TBC1D10A, Q9BXI6] ... 4.11
QKNRKAQEDL [CES3, Q6UWW8] ... 4

Next item in the queue.
Query :: GET /values?readout=pKd&item= QGLAERISVL [PRKD2, Q9BZL6]
Result :: 4.17
